Values were extracted from the supplement of paper PMC5908809.

test system: normal primary NK cells, pool 1 (3 donors), resting (IL-2 0 ng/mL); assay: percent inhibition of viability; higher = more inhibition; details: 72 h; 2500 nM;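 note: normalised to DMSO-only wells as negative and benzethonium chloride as positive control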
Provide the reported percent inhibition of viability of each item.
Numbers only, in %.

For every item in the list below, what is its measured percent inhibition of viability?
1. O=C(c1cccc(Cl)c1F)N1CCN(Cc2cccc(Nc3nccs3)n2)CC1 [MK-8745] (max concentration tested 2500 nM)
2. CCOc1cc2ncc(C#N)c(Nc3ccc(F)c(Cl)c3)c2cc1NC(=O)/C=C/CN(C)C [Pelitinib] (max concentration tested 2500 nM)
3. Nc1nc(NC2CC2)cc(-c2cccc(Cl)c2Cl)n1 [TH588] (max concentration tested 25000 nM)

Resp:
-1.15
82.3
14.2

Req: Sample COc1cc(C(=O)NC2CCN(C)CC2)c(F)cc1Nc1ncc2c(n1)N(C1CCCC1)CC(F)(F)C(=O)N2C [TAK-960] (max concentration tested 2500 nM) — what was its percent inhibition of viability?
Resp: -6.51
